For each of the binders below, state its kon.
- Measurement target: T1, recombinant human CEACAM5 (human, UniProt P06731 35-685, limits assumed)
- T1 construct: Immobilised by amine coupling on a CM5 chip
- T1 sequence (looked up): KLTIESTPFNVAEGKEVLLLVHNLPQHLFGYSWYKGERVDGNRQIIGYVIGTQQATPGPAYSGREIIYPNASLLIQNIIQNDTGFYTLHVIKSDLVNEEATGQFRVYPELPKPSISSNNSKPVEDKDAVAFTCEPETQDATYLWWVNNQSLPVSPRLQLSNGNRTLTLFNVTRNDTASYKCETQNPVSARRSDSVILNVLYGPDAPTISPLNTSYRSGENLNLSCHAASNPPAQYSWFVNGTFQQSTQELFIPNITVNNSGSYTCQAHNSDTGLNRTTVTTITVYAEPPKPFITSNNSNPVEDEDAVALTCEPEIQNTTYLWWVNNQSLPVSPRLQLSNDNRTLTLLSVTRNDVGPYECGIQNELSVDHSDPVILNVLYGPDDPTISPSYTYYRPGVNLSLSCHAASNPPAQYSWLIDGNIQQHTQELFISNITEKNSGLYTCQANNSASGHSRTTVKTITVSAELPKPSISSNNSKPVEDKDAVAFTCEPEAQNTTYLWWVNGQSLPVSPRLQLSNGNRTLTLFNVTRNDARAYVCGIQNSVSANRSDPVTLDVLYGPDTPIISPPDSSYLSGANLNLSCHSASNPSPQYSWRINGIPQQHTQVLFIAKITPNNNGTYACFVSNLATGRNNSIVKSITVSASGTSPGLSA
- Measurement notes: SPR on CEACAM5 (Example 2; method not restated, as Example 1)
One number for each entry, in M⁻¹ s⁻¹.

1) T039400048 (VHH, Single lysine at 45; also called HIS6-ENLYFQS-5GS-A0315007E07(K43R, R45K, K64R, K75R)) VHH: EVQLVESGGGVVQPGGSLRLSCAASGLTFSTYTMGWFRQAPGREKEFVAAIIWSGSNTYYADSVRGRFTISRDNARNTVYLQMNSLRPEDTALYYCAAQHFGPIGLTTRGYHYWGQGTLVTVSS ... 577000

Consider now this further binder.
Inquiry: # get_value(readout='kon', item= T039400049 (VHH, also called HIS6-ENLYFQS-5GS-A0315007E07(K43R, K64R, K75R, Q105K)) VHH: EVQLVESGGGVVQPGGSLRLSCAASGLTFSTYTMGWFRQAPGREREFVAAIIWSGSNTYYADSVRGRFTISRDNARNTVYLQMNSLRPEDTALYYCAAQHFGPIGLTTRGYHYWGKGTLVTVSS )
Reply text: 586000
